experiment: yeast display, Sf9 membrane polyspecificity reagent, FACS + sequencing; frameworks hold sequencing errors
recordedEndpoint: polyreactivity (PSR sort gate)

QVQLVESGVGLVQAGGSLRLSCAASGSIFGRNAMGWYRQAPGKERELVARISYIGGSTYYADSVKGRFTISRDNEKNTVYLQMNSLKPEDTSVYYCAKRYGFGYKRMDYWGQGTQVTVSS low polyreactivity
QVQLVESGGGLVQAGGILRLSCAASGSTLGYYAMGWYRQAPGKERELVAAISWSGGRTYYADSVKGRFTISRDNAKNTVYLQMNSLKQEDTAFYYCNALNRTHYTGSDFYSWGQGTQVTVSS high polyreactivity
QVQLVESGGGLVQAGGSLRLSCAASGRIFNVNVMGWYRQAPGKERELVASINWSGTSTYYADSVKGRFTISRDNAKNTVYLQMNSLKPEDTAVYYCAADLALYNTLYLTLPDYYWGQGTQVTVSS low polyreactivity
QVQLVESGGGLVQAGGSLRLSCAASGIIFYKYAMGWYRQAPGKERELVAAITSGGGRTYYADSVKGRFTISRDNAKNTVYLQMNSLKPEDTAVYYCNADTYSAGDYWGQGTQVTVSS high polyreactivity
QVQLVESGGGLVQAGGSLRLSCAASGLTFPYYAMGWYRQAPGKERELVAVITSGGRTYYADSVKGRFTISRDNAKNTVYLQMNSLKPEDTAVYYCAVGWRTIYGSDGDYWGQGTQVTVST high polyreactivity

For each of the items listed, what is its polyreactivity (PSR sort gate)?
1. QVQLVESGGGLVQAGGSLRLSCAASGRTFYKNTMGWYRQAPGKERELVAGISQRGGRTYYADSVKGRFTISRDNAKNTVYLQMNSLKPEDTAVYYCAADRYSYGSNGYPRFEYYYWGQGTQVTVSS
2. QVQLVESGGALVQAGGSLRLSCAASGFIFGSYVMGWYRQAPGKERELVAAISQIGGRTYYADSVKGRFTISRDNAKKTVYLQMNSLKPEDTAVYYCAARWAGYRYVGGYWRDDMDYWGQGTQVTVSS
3. QVQLVESGGGLVQAGGSLRLSCAASGFIFRYYAMGWYRQAPGKERELVAAITNSGVSTYYADSVKGRFTISRDNAKNTVYLQMNSLKPEDTAVYYCAATYRTRTSQYDYWGQGTQVTVSS
4. QVQLVESGGGLVQARGSLRLSCAASGSTILYYAMGWYRQAPGKERELVAVIRLDAGRTYYADSVKGRFTISRDNAKNTVYFQMNSLKPEDTAVYYCAAKGCFRTYGGGNYWGQGTQVTVSS
5. QVQLVESGGGLVQAGGSLRLSCAASGRIFTDYTMGWYRHAPGKERELDAAISKGGSGTYYADSVKGRFTISRDNAKNTVYLQMNSLKPEDTAVYYCNKVISTGEYDYWGQGTQVTVSS
6. QVQLVESGGGLVQAGGSLRLSCAASGFTFYNNAMGWYRQAPGKERELVAGIARRGGSTSYADSVKGRFTISRDNAKNSVYLQMNSLKPEDTEVYYCAKQDYSPYYPYDYWGLGTQVTVSS

Response:
["high polyreactivity", "high polyreactivity", "high polyreactivity", "high polyreactivity", "low polyreactivity", "high polyreactivity"]

For each of the items listed, what is its polyreactivity (PSR sort gate)?
1. QVQLEESGGGLVQAGGSLRLSCAASGRIIYSNGMGWYRQAPGKERELVAAISSGGSTYYADSVKGRFTISRDNAKNTVYLQMNSLKPEDTAVYYCAADIDYERDRYDYWGQGTQVTVSS
2. QVQLVESGGGLVQAGGSLRLSCAASGSTFHRYTMGWYRQAPGKEWELVAAISWSGGSTYYADSVKGRFTISRDNAKNTVYLQMNSLKPEDTAVYYCAAVKPAEALDYWGQGTQVTVSS
3. QVQLVESGGGLVQAGGSLRLSCAASGSIFSANAMGWYRQAPGKERELVAAISSSGNTNYSDSVKWRFTISRDNAKNTFYLQMNSLKPEDTAVYYCAVELKQVTPGLGYITLDYWGQGTQVTVSS
4. QVQLVESGGGLVQAGGSLRLSCAASGLTFQKYAMGWYRQAPGKERELVAAISRGGDTYYADSVKGRFTISRDNAKNTVYLQMNSLKPEDTAVYYCAASNYLYRYSHYGYWGQGTQVTVSS
5. QVQLVESGGGLVQAGGSLRLSCAASGSTFQTYAMGWYRQPPGKERELVAALNWRSGSTYYADSVKGRFTISRDNATNTVYLLMTSVKPEDTAVYDCARRSTGYTFDVSSMDYWGQGTQVTLSS
6. QVQLVESGGGLVQAGGSLRLSCAASGRIFSSNGMGWYRQAPGKERELVAAIRTDGGSTYYADSVKGRFTISRDNAKNTVYLQMNSLKPEDTAVYYCNAQGAYTDVFDVYQRQPDDYWGQGTQVTVSS

Response:
1: low polyreactivity; 2: high polyreactivity; 3: low polyreactivity; 4: high polyreactivity; 5: low polyreactivity; 6: low polyreactivity
